Origin of measurements: ChEMBL document CHEMBL1132601

Molecular target: Histamine H3 receptor (Rattus norvegicus)
Sequence (Q9QYN8 whole entry): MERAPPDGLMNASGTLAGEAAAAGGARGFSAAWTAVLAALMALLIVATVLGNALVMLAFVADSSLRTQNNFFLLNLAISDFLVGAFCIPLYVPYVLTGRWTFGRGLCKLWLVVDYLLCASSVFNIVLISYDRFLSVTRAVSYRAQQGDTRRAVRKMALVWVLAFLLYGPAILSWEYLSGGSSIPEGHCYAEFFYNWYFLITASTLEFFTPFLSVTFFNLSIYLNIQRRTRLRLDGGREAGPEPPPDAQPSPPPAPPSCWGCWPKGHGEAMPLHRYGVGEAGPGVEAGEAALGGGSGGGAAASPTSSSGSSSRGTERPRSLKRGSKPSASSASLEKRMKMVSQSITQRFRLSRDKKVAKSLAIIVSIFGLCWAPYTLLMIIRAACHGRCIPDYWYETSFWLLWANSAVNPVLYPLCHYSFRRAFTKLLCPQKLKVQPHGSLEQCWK
Test: Binding affinity at histamine H3 receptor in rat cortical membranes by [3H]Nalpha-methylhistamine displacement.
Assay type: cell membranes
Field: Ki. Provide a value for each of the molecules that follow.
Could you give me the number in nM? Just the number is fine.

Which measured Ki value corresponds to CC(C)(C)CCC#C[C@@H]1C[C@H]1c1c[nH]cn1 ?
0.12

Queued: CCCC#CC1CC1c1c[nH]cn1 (configuration not stated)
5.1
